Target: OATP4C1 (Homo sapiens, UniProt Q6ZQN7)
Sequence (Q6ZQN7 1-724): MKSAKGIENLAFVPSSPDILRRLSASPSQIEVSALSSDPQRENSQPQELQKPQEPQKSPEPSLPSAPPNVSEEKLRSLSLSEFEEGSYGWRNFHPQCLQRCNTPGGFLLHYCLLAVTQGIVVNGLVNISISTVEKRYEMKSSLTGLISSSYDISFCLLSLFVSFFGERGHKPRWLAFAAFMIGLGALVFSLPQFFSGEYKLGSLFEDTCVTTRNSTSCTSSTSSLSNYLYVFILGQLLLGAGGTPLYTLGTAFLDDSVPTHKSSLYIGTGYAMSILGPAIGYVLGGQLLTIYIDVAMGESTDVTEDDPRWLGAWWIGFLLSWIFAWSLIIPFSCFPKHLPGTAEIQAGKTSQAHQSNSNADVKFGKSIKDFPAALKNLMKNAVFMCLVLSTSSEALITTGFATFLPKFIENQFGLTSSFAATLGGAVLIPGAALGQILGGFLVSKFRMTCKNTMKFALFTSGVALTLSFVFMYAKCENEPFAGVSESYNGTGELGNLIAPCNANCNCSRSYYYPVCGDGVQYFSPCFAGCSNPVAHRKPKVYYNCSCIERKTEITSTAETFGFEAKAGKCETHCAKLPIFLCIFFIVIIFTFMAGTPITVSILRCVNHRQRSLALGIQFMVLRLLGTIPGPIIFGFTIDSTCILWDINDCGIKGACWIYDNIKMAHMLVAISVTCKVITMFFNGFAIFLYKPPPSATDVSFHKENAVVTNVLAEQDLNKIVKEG
Experiment: Inhibition of OATP4C1-mediated T3 uptake in OATP4C1/MDCKII cells
Conditions: human, pH 7.4, probe T3 (1 µM), inhibition of OATP4C1-mediated transport, 100 µM compound, 1 µM T3, 10 min, 37 °C, without AA

molecularString	unitInfo	relationQualifier	inhibition at 10 min, 100 µM
O=c1c(O)c(-c2ccc(O)cc2O)oc2cc(O)cc(O)c12	%	≥	50
O=c1c(O)c(-c2ccc(O)c(O)c2)oc2cc(O)ccc12	%	=	24
O=c1cc(-c2ccc(O)c(O)c2)oc2cc(O)cc(O)c12	%	≥	50
O=c1c(O)c(-c2ccc(O)c(O)c2)oc2cc(O)cc(O)c12	%	≥	50
Oc1ccc(/C=C/c2cc(O)cc(O)c2)cc1	%	=	46
O=c1cc(-c2ccc(O)cc2)oc2cc(O)cc(O)c12	%	≥	50
O=c1c(-c2ccc(O)cc2)coc2cc(O)ccc12	%	=	40

----------
Target: OATP4C1 (Homo sapiens)
Test: Inhibition of OATP4C1-mediated T3 uptake in OATP4C1/MDCKII cells
Settings: Supplementary table

molecule	OATP4C1 inhibition or elevation (class)
O=c1c(O)c(-c2cc(O)c(O)c(O)c2)oc2cc(O)cc(O)c12 [Myricetin, myricetin]	No
O=c1c(O)c(-c2ccc(O)cc2O)oc2cc(O)cc(O)c12 [morin]	Yes
O=C(O)/C=C/c1ccc(O)c(O)c1 [caffeic acid, Caffeic acid]	No
O=C(O[C@@H]1Cc2c(O)cc(O)cc2O[C@@H]1c1cc(O)c(O)c(O)c1)c1cc(O)c(O)c(O)c1 [EGCG, epigallocatechin-3-gallate]	No
O=c1c(O)cc([C@H]2Oc3cc(O)cc(O)c3C[C@H]2O)cc2c([C@H]3Oc4cc(O)cc(O)c4C[C@H]3O)cc(O)c(O)c12 [Theaflavin, theaflavin]	No
O=c1c(O[C@@H]2O[C@H](CO)[C@H](O)[C@H](O)[C@H]2O)c(-c2ccc(O)c(O)c2)oc2cc(O)cc(O)c12 [Hyperoside]	No
